Experiment: Quantitative High-Throughput drug screen in 47 multiple myeloma cell lines against the NCATS MIPE library collection: NCIH929_DSMZ cell viability assay (AID 1918978); note: nearly all actives have a fitted effect of over 35% in size; note: potency is the fitted concentration of half-maximal effect
Details: NCI-H929 myeloma viability, CellTiter-Glo ATP, 48 h; series mostly up to 45.8 µM
Records with an inconclusive call do not appear. Active and inactive are the calls of the source. Calls come from the whole dose curve; as a rule, active = well fitted cell-killing curve with a large enough effect; inconclusive = small, poorly fitted or top-dose-only effect; inactive = no such curve, though single readings can be large or run the other way.
Attribute Measured: Potency

> print(dat)
                                   compound          measured
1  CC(=O)N1CCN(c2ccc(OCc3nn(C)c(C)c3-c3cccc4c(CCCOc5cc(C)c(Cl)c(C)c5)c(C(=O)O)n(Cc5cccnc5)c34)cc2)CC1  2.96 µM (active)
2            Fc1ccc(CNc2ncnc3ccc(F)cc23)cc1  16.6 µM (active)
3  Clc1ccc(C2(c3ccc(-c4cn[nH]c4)cc3)CCNCC2)cc1  2.96 µM (active)
4  CCCCCCCCCCCCCCCC(=O)O[C@H]1[C@@H](O)[C@@H](O)[C@@H]([C@H](NC(=O)[C@@H]2C[C@@H](CCC)CN2C)[C@H](C)Cl)O[C@@H]1SC  2.96 µM (active)
5  Cc1cc(OCCCS(C)(=O)=O)cc(C)c1-c1cccc(COc2ccc3c(c2)OC[C@H]3CC(=O)O)c1  20.9 µM (active)

Input: What value of Potency has been reported for the following compound? COc1ccc(-c2cc3nccn3c(Nc3ncccc3C(N)=O)n2)cc1OC
Output: 0.935 µM (active)

Input: And the next one, COc1ccc(-c2oc3c(CC=C(C)C)c(O)cc(O)c3c(=O)c2O)cc1 ?
Output: 10.5 µM (active)

Input: # iterate: Cc1ccc2c(c1)c1c(n2CCc2ccc(C)nc2)CCN(C)C1
Output: inactive
